# Test system: Staphylococcus aureus
# experiment: Antimicrobial activity against methicillin-susceptible Staphylococcus aureus after 24 hrs by broth microdilution method
# Format: functional
value type: MIC

sample smiles	result
CC[C@H]1OC(=O)[C@H](C)[C@@H](O[C@H]2C[C@@](C)(OC)[C@@H](O)[C@H](C)O2)[C@H](C)[C@@H](O[C@@H]2O[C@H](C)C[C@H](N(C)C)[C@H]2O)[C@](C)(O)C[C@@H](C)C(=O)[C@H](C)[C@@H](O)[C@]1(C)O	0.5 µg/mL
C[C@H]1COc2c(N3CCN(C)CC3)c(F)cc3c(=O)c(C(=O)O)cn1c23.C[C@H]1COc2c(N3CCN(C)CC3)c(F)cc3c(=O)c(C(=O)O)cn1c23.O	0.125 µg/mL
Cc1onc(-c2ccccc2)c1C(=O)N[C@@H]1C(=O)N2[C@@H]1SC(C)(C)[C@@H]2C(=O)O	0.125 µg/mL
COc1cc(O)c(C(=O)[C@@H]2[C@H](CC=C(C)C)C(C)=CC[C@H]2c2ccccc2)c(O)c1	0.5 µg/mL

###

# System: Staphylococcus aureus
# experiment: Bactericidal activity against methicillin-susceptible Staphylococcus aureus after 24 hrs by plate counting method
# Assay type: functional
Recorded MBC90 values for a group of molecules are listed next.

molecule	target system	MBC90
CC1(C)S[C@@H]2[C@H](NC(=O)[C@H](N)c3ccccc3)C(=O)N2[C@H]1C(=O)O [AMPICILLIN]	Staphylococcus aureus	128 µg/mL
Cc1onc(-c2ccccc2)c1C(=O)N[C@@H]1C(=O)N2[C@@H]1SC(C)(C)[C@@H]2C(=O)O [OXACILLIN]	Staphylococcus aureus	64 µg/mL
CC(=O)NC[C@H]1CN(c2ccc(N3CCOCC3)c(F)c2)C(=O)O1 [LINEZOLID]	Staphylococcus aureus	32 µg/mL
CN[C@H](CC(C)C)C(=O)N[C@H]1C(=O)N[C@@H](CC(N)=O)C(=O)N[C@H]2C(=O)N[C@H]3C(=O)N[C@H](C(=O)N[C@H](C(=O)O)c4cc(O)cc(O)c4-c4cc3ccc4O)[C@H](O)c3ccc(c(Cl)c3)Oc3cc2cc(c3O[C@@H]2O[C@H](CO)[C@@H](O)[C@H](O)[C@H]2O[C@H]2C[C@](C)(N)[C@H](O)[C@H](C)O2)Oc2ccc(cc2Cl)[C@H]1O [VANCOMYCIN]	Staphylococcus aureus	2 µg/mL
CN(C)[C@@H]1C(O)=C(C(N)=O)C(=O)[C@@]2(O)C(O)=C3C(=O)c4c(O)cccc4[C@@](C)(O)[C@H]3C[C@@H]12 [TETRACYCLINE]	Staphylococcus aureus	32 µg/mL
Cc1ccc(C(C)C)c(O)c1 [THYMOL]	Staphylococcus aureus	512 µg/mL
C[C@H]1COc2c(N3CCN(C)CC3)c(F)cc3c(=O)c(C(=O)O)cn1c23.C[C@H]1COc2c(N3CCN(C)CC3)c(F)cc3c(=O)c(C(=O)O)cn1c23.O [LEVOFLOXACIN]	Staphylococcus aureus	8 µg/mL
COc1cc(O)c(C(=O)[C@@H]2[C@H](CC=C(C)C)C(C)=CC[C@H]2c2ccccc2)c(O)c1 [PANDURATIN A]	Staphylococcus aureus	4 µg/mL

###

# System: Staphylococcus simulans
# experiment: Bactericidal activity against methicillin-resistant coagulase-negative Staphylococcus simulans after 24 hrs by plate counting method
# Type: functional

sample smiles	MBC50 / µg/mL
CN[C@H](CC(C)C)C(=O)N[C@H]1C(=O)N[C@@H](CC(N)=O)C(=O)N[C@H]2C(=O)N[C@H]3C(=O)N[C@H](C(=O)N[C@H](C(=O)O)c4cc(O)cc(O)c4-c4cc3ccc4O)[C@H](O)c3ccc(c(Cl)c3)Oc3cc2cc(c3O[C@@H]2O[C@H](CO)[C@@H](O)[C@H](O)[C@H]2O[C@H]2C[C@](C)(N)[C@H](O)[C@H](C)O2)Oc2ccc(cc2Cl)[C@H]1O	2
C[C@H]1COc2c(N3CCN(C)CC3)c(F)cc3c(=O)c(C(=O)O)cn1c23.C[C@H]1COc2c(N3CCN(C)CC3)c(F)cc3c(=O)c(C(=O)O)cn1c23.O	4
CN(C)[C@@H]1C(O)=C(C(N)=O)C(=O)[C@@]2(O)C(O)=C3C(=O)c4c(O)cccc4[C@@](C)(O)[C@H]3C[C@@H]12	4
COc1cc(O)c(C(=O)[C@@H]2[C@H](CC=C(C)C)C(C)=CC[C@H]2c2ccccc2)c(O)c1	2
CC[C@H]1OC(=O)[C@H](C)[C@@H](O[C@H]2C[C@@](C)(OC)[C@@H](O)[C@H](C)O2)[C@H](C)[C@@H](O[C@@H]2O[C@H](C)C[C@H](N(C)C)[C@H]2O)[C@](C)(O)C[C@@H](C)C(=O)[C@H](C)[C@@H](O)[C@]1(C)O	32
CC1(C)S[C@@H]2[C@H](NC(=O)[C@H](N)c3ccccc3)C(=O)N2[C@H]1C(=O)O	32

###

Recorded MBC50 values for a group of compounds are listed next.
# Tested on: Staphylococcus epidermidis
# experiment: Bactericidal activity against methicillin-susceptible coagulase-negative Staphylococcus epidermidis after 24 hrs by plate counting method
# Format: functional
value type: MBC50 (µg/mL)

sample smiles	target system	readout units	result
CN(C)[C@@H]1C(O)=C(C(N)=O)C(=O)[C@@]2(O)C(O)=C3C(=O)c4c(O)cccc4[C@@](C)(O)[C@H]3C[C@@H]12	Staphylococcus epidermidis	µg/mL	8
C[C@H]1COc2c(N3CCN(C)CC3)c(F)cc3c(=O)c(C(=O)O)cn1c23.C[C@H]1COc2c(N3CCN(C)CC3)c(F)cc3c(=O)c(C(=O)O)cn1c23.O	Staphylococcus epidermidis	µg/mL	1
CN[C@H](CC(C)C)C(=O)N[C@H]1C(=O)N[C@@H](CC(N)=O)C(=O)N[C@H]2C(=O)N[C@H]3C(=O)N[C@H](C(=O)N[C@H](C(=O)O)c4cc(O)cc(O)c4-c4cc3ccc4O)[C@H](O)c3ccc(c(Cl)c3)Oc3cc2cc(c3O[C@@H]2O[C@H](CO)[C@@H](O)[C@H](O)[C@H]2O[C@H]2C[C@](C)(N)[C@H](O)[C@H](C)O2)Oc2ccc(cc2Cl)[C@H]1O	Staphylococcus epidermidis	µg/mL	1
CC1(C)S[C@@H]2[C@H](NC(=O)[C@H](N)c3ccccc3)C(=O)N2[C@H]1C(=O)O	Staphylococcus epidermidis	µg/mL	4
Cc1ccc(C(C)C)c(O)c1	Staphylococcus epidermidis	µg/mL	256
COc1cc(O)c(C(=O)[C@@H]2[C@H](CC=C(C)C)C(C)=CC[C@H]2c2ccccc2)c(O)c1	Staphylococcus epidermidis	µg/mL	1
Cc1onc(-c2ccccc2)c1C(=O)N[C@@H]1C(=O)N2[C@@H]1SC(C)(C)[C@@H]2C(=O)O	Staphylococcus epidermidis	µg/mL	2
CC[C@H]1OC(=O)[C@H](C)[C@@H](O[C@H]2C[C@@](C)(OC)[C@@H](O)[C@H](C)O2)[C@H](C)[C@@H](O[C@@H]2O[C@H](C)C[C@H](N(C)C)[C@H]2O)[C@](C)(O)C[C@@H](C)C(=O)[C@H](C)[C@@H](O)[C@]1(C)O	Staphylococcus epidermidis	µg/mL	2
CC(=O)NC[C@H]1CN(c2ccc(N3CCOCC3)c(F)c2)C(=O)O1	Staphylococcus epidermidis	µg/mL	2

###

Recorded MBC50 values for a group of compounds are listed next.
# Tested on: Mammaliicoccus sciuri
# experiment: Bactericidal activity against methicillin-susceptible coagulase-negative Staphylococcus sciuri after 24 hrs by plate counting method
# Assay type: functional

compound	target system	readout units	MBC50
CC1(C)S[C@@H]2[C@H](NC(=O)[C@H](N)c3ccccc3)C(=O)N2[C@H]1C(=O)O [AMPICILLIN]	Mammaliicoccus sciuri	µg/mL	4
CC[C@H]1OC(=O)[C@H](C)[C@@H](O[C@H]2C[C@@](C)(OC)[C@@H](O)[C@H](C)O2)[C@H](C)[C@@H](O[C@@H]2O[C@H](C)C[C@H](N(C)C)[C@H]2O)[C@](C)(O)C[C@@H](C)C(=O)[C@H](C)[C@@H](O)[C@]1(C)O [ERYTHROMYCIN]	Mammaliicoccus sciuri	µg/mL	2
C[C@H]1COc2c(N3CCN(C)CC3)c(F)cc3c(=O)c(C(=O)O)cn1c23.C[C@H]1COc2c(N3CCN(C)CC3)c(F)cc3c(=O)c(C(=O)O)cn1c23.O [LEVOFLOXACIN]	Mammaliicoccus sciuri	µg/mL	1

###

# Tested on: Staphylococcus aureus
# experiment: Bactericidal activity against methicillin-susceptible Staphylococcus aureus after 24 hrs by plate counting method
# Assay type: functional
# assay setup: Staphylococcus aureus, 24 h

compound	MBC
CN(C)[C@@H]1C(O)=C(C(N)=O)C(=O)[C@@]2(O)C(O)=C3C(=O)c4c(O)cccc4[C@@](C)(O)[C@H]3C[C@@H]12 [TETRACYCLINE]	1 µg/mL
C[C@H]1COc2c(N3CCN(C)CC3)c(F)cc3c(=O)c(C(=O)O)cn1c23.C[C@H]1COc2c(N3CCN(C)CC3)c(F)cc3c(=O)c(C(=O)O)cn1c23.O [LEVOFLOXACIN]	0.125 µg/mL
CC1(C)S[C@@H]2[C@H](NC(=O)[C@H](N)c3ccccc3)C(=O)N2[C@H]1C(=O)O [AMPICILLIN]	1 µg/mL
Cc1ccc(C(C)C)c(O)c1 [THYMOL]	128 µg/mL
